System: virus strain S (R13080)
Test: microbe, parasite or virus in culture
Type: cell-based, HIV
Details: FR=EC50(mutant strain)/EC50(HIV-1 strain LAI); strain S
Description: HIV- or mock-infected MT4 cells were incubated for five days in the presence of various concentrations of the inhibitor. […] Cell viability is measured by measuring the concentration of MTT, a yellow, water soluble tetrazolium dye that is converted to a purple, water insoluble formazan in the mitochondria of living cells only. Upon solubilization of the resulting formazan crystals with isopropanol, the absorbance of the solution is monitored at 540 nm. […]

| MOLECULE | fold resistance (FR), strain S |
| --- | --- |
| CC(C)CN(C[C@@H](O)[C@H](Cc1ccccc1)NC(=O)O[C@H]1CCOC1)S(=O)(=O)c1ccc2nc(NC(=O)CN3CCN(C)CC3)sc2c1.O=C(O)C(F)(F)F | 17.0 |
| Cc1cccc(C)c1OCC(=O)N[C@@H](Cc1ccccc1)[C@H](O)CN(CC(C)C)S(=O)(=O)c1ccc2nc(NCCN(C)C)sc2c1 | 12.8 |
| CC(=O)Nc1nc2ccc(S(=O)(=O)N(CC(C)C)C[C@@H](O)[C@H](Cc3ccccc3)NC(=O)c3cc(N)ccc3C)cc2s1 | 966.6 |
| CC(C)CN(C[C@@H](O)[C@H](Cc1ccccc1)NC(=O)O[C@H]1CO[C@H]2OCC[C@H]21)S(=O)(=O)c1ccc2nc(NC(=O)CN3CCNCC3)sc2c1 | 0.6 |
| Cc1c(N)cccc1C(=O)N[C@@H](Cc1ccccc1)[C@H](O)CN(CC(C)C)S(=O)(=O)c1ccc2nc(NCCN3CCNCC3)sc2c1 | 1.4 |
| CC(C)CN(CC(O)C(Cc1ccccc1)NC(=O)OC1COC2OCCC12)S(=O)(=O)c1ccc2nc(NC(=O)CN3CCCC3)sc2c1 (mixture of isomers) [Compound 7] | 2.0 |
